Recorded values, source paper PMC7251975.

- study_target: rSTEAP1 (Six Transmembrane Epithelial Antigen of Prostate 1) (Oryctolagus cuniculus, UniProt G1SWI4)
- Sequence (G1SWI4 43-352): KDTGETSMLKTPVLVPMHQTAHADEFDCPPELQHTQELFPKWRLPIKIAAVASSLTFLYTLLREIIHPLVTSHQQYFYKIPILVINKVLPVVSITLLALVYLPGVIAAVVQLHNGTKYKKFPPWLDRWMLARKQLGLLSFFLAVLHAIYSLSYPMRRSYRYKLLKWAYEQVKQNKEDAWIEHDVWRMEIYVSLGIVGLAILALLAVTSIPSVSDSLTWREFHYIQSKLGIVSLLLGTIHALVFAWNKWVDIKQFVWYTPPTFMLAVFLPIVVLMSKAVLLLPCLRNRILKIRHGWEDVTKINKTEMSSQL
observation_type: Kd (µM)
# output: bare number, implied unit µM

**Q:** I am curious: what Kd value has been reported for Cc1cc2nc3c(=O)[nH]c(=O)nc-3n(C[C@H](O)[C@H](O)[C@H](O)COP(=O)(O)OP(=O)(O)OC[C@H]3O[C@@H](n4cnc5c(N)ncnc54)[C@H](O)[C@@H]3O)c2cc1C [FAD] ?
**A:** 32.3
